The values you see were collected from patent US20220033483A1.

- Measured Target: T1, cTnI quality control product recombinant protein (human, UniProt P19429 1-210, limits assumed)
- T1 construct: the assay paragraphs only say cTnI; also called cardiac troponin I; cTnI antigen
- T1 sequence (P19429 whole entry): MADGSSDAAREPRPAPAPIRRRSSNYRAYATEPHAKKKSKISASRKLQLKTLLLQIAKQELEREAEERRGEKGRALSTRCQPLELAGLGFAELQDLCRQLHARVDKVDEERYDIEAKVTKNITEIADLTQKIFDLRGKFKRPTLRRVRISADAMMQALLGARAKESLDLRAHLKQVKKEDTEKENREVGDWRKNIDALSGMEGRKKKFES
- Test Summary: capture ELISA, antibody 0.000 ng/ml (blank), cTnI 0.15 ug/ml
Experimental Readout: OD 450 nm (OD)
Quick note: give the figure in OD, leave out the unit.

Some solved cases for reference:
Mutation 3 (antibody, V domains shown, other CDR sites as WT) VH: QVQLQQSGTELAKPGASVKFSCKASIYTFSTYWMYWIKQRPGQGLEWIGYLNPSSGHTGYNQRFKDKATLTADKSSSTAYMQLNSLTSEDSAVYYCARKYFGPFVMDYWGQGTSVTVSS VL: EIFLTQSPAIMSASPGEKVTMTCSASTTVSYIHWYQQKSGTSPKRWLYDTSKIASGIPVRFSGSGSGTSYSLTISSMEAEDAATYYCQRWSTQPYTFGGGTKLEIKR | 0.204
Anti-cTnI 7B9 monoclonal antibody (recombinant, Sample 1) (antibody, mouse IgG1, kappa, V domains shown, Recombinant mouse antibody expressed in CHO cells; also called WT; Anti-cTnI 7B9 antibody) VH: QVQLQQSGTELAKPGASVKFSCKASDYTFSTYWMYWIKQRPGQGLEWIGYLNPSSGHTEYNQRFKDKATLTADKSSSTAYMQLNSLTSEDSAVYYCARKYFGPFAMDYWGQGTSVTVSS VL: EIFLTQSPAIMSASPGEKVTMTCSASTTVSYAHWYQQKSGTSPKRWLYDSSKIASGIPVRFSGSGSGTSYSLTISSMEAEDAATYYCQNWSTQPYTFGGGTKLEIKR | 0.144
Mutation 1 (antibody, V domains shown, other CDR sites as WT) VH: QVQLQQSGTELAKPGASVKFSCKASGYTFSTYWMYWIKQRPGQGLEWIGYLNPSSGHTDYNQRFKDKATLTADKSSSTAYMQLNSLTSEDSAVYYCARKYFGPFGMDYWGQGTSVTVSS VL: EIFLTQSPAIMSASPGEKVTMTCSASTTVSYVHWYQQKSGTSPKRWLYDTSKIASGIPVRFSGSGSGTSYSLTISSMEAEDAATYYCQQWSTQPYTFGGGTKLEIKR | 0.193

As a next step, examine the binder that follows.
Record Mutation 2 (antibody, V domains shown, other CDR sites as WT) VH: QVQLQQSGTELAKPGASVKFSCKASLYTFSTYWMYWIKQRPGQGLEWIGYLNPSSGHTEYNQRFKDKATLTADKSSSTAYMQLNSLTSEDSAVYYCARKYFGPFIMDYWGQGTSVTVSS VL: EIFLTQSPAIMSASPGEKVTMTCSASTTVSYAHWYQQKSGTSPKRWLYDTSKIASGIPVRFSGSGSGTSYSLTISSMEAEDAATYYCQVWSTQPYTFGGGTKLEIKR . Reported OD 450 nm: 0.224
